Origin of measurements: patent US5324726A

# ASSAYED TARGET: CCK receptor, brain (cerebral cortex) (Cavia porcellus)
# Sequence (H0VZC5 1-426): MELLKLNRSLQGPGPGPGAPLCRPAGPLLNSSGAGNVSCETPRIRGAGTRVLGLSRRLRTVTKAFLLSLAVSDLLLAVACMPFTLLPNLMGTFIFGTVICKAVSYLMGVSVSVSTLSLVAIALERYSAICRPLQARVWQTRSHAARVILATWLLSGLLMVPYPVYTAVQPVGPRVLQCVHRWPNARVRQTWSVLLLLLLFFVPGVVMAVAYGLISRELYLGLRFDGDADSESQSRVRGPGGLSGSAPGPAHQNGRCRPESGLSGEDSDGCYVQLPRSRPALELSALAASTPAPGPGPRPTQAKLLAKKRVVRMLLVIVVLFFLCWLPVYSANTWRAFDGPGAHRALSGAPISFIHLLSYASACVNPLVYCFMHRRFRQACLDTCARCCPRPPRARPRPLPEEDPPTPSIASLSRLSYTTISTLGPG
VALUE TYPE: IC50 (nM)
Your answer should be a plain number; it is taken to be in nM.

Problem: Record lookup: for CCK receptor, brain (cerebral cortex) (Cavia porcellus), what IC50 belongs to CN1C(=O)[C@@H](NC(=O)c2cc3cc(O)ccc3[nH]2)N=C(c2ccccc2)c2ccccc21 ?
Result: 910
